Tested on: MOLT-4 leukemia
Test: NCI-60 one-dose screen, 48 h
Details: 10 µM unless noted
Procedure: Growth inhibition of the MOLT-4 human tumor cell line is measured as a screen for anti-cancer activity. Cells are grown in 96 well plates and exposed to the test compound for 48 hours. Compounds are tested at a single concentration, which is 10^-5 M for most compounds. The reported endpoint is percent growth (GI% or GIPRCNT), where numbers from 0 - 100% represent growth inhibition, and numbers from -100% - 0 represent cell death. For example, a value of 40 represents 60% growth inhibition. […]
Compounds without any hit were thinned out: in the full panel of roughly 83,000, 20% have a hit. Calls of active or inactive are those of the source. How the source made its calls: active means growth percent below 10; inactive means the rest.
Pick from active, inactive when you respond.

For Cc1cc(O)c(=O)cc2c1C[C@H]1CC(C)(C)/C=C/C[C@]3(C)Oc4cc(=O)c(O)cc(C)c4C[C@H]3C[C@H](O)[C@@]1(C)O2 , what call appears in the results of this test? active

For Cc1cccc(N2C(=O)/C(=C/C(Cl)=C/c3ccc([N+](=O)[O-])cc3)SC2=S)c1C , what call appears in the results of this test? active

For Cc1cc(O)cc(-c2nn(C)cc2-c2cc(N3CCOCC3)nc(-c3cccnc3)n2)c1 , what call appears in the results of this test? inactive

For CC1=C(Cl)C(=O)c2cc(C)ccc2C1=O , what call appears in the results of this test? inactive

For C#Cc1cccc(Nc2ncnc3cc(NC(=O)CCl)ccc23)c1 , what call appears in the results of this test? active

* * *

System: SW-620 colon
Test: NCI-60 one-dose screen, 48 h
Conditions: 10 µM unless noted
The panel holds about 83,000 compounds, 20% with a hit somewhere; the sample as a whole holds those more often. Active and inactive are the calls of the source. Rule for the calls: active = growth percent below 10; inactive = the rest.
Pick from 1 (yes) (active), 0 (no) (inactive) when you respond.

For O=C(N/N=C/c1ccc(Cl)cc1)c1ccc(NC(=O)c2ccccn2)cc1 , what call appears in the results of this test? 0 (no)

For CN(C)CCCNC(=O)c1cncnc1Nc1ccc2c(ccn2Cc2cccc(F)c2)c1 , what call appears in the results of this test? 0 (no)

For Cc1ccc(C2CC(c3cccc(Nc4ccncc4)c3)=Nc3c(N)nc(N)nc3N2)cc1 (centres undefined) , what call appears in the results of this test? 0 (no)

For COc1ccc(C2CC(n3ccnc3)c3cc(OC)c(OC)c(OC)c32)cc1O (centres undefined) , what call appears in the results of this test? 0 (no)

For Cc1[nH]n(-c2cccc(Cl)c2)c(=O)c1/C=C1\C=c2ccccc2=CC1=O , what call appears in the results of this test? 0 (no)

For O=C(NCCCCCCNC(=O)OCc1ccc2c(Cl)cc(Cl)c(O)c2n1)OCc1ccc2c(Cl)cc(Cl)c(O)c2n1 , what call appears in the results of this test? 1 (yes)

For COC12C=C/C(=C(/C(=O)OCc3csc(SC)n3)C(=O)CCCCCCCCC3(OC)C=C/C(=C(/C(=O)OCc4cnc(SC)s4)C(=O)CCCCCCCC1)O3)O2 (centres undefined) , what call appears in the results of this test? 0 (no)

For C=C1SC(=Nc2ccccc2Cl)N(C(=O)c2sc3ccccc3c2Cl)C1(C)C , what call appears in the results of this test? 0 (no)

For COc1cccc(CNc2c3ccccc3nc3ccccc23)c1OC , what call appears in the results of this test? 0 (no)

For COc1ccc(C(=O)C/C(=C\c2ccc(O)c(OC)c2)C(=O)NN)cc1 , what call appears in the results of this test? 0 (no)

For Cc1ccc(S(=O)(=O)c2nc(-c3ccccc3)oc2SCC(N)=O)cc1 , what call appears in the results of this test? 0 (no)

For COc1ccc(C2CC(c3ccccc3)=NN2C(=O)c2cc(OC)c(OC)c(OC)c2)cc1O (centres undefined) , what call appears in the results of this test? 0 (no)

For Cc1cccc(-c2nc(C(C)C)sc2-c2ccnc(NCCCNS(=O)(=O)c3ccc(Cl)cc3)c2)c1 , what call appears in the results of this test? 0 (no)

For COC(=O)c1sccc1-c1cc(O)c(C(=O)Nc2ccccc2)s1 , what call appears in the results of this test? 0 (no)

For COc1cc(C[C@H]2COc3cc(O)cc(O)c3C2=O)ccc1O , what call appears in the results of this test? 0 (no)

For CCN1C(=O)N(CC)C2C1NN=c1s/c(=C\c3ccc(OC)cc3)c(=O)n12 (centres undefined) , what call appears in the results of this test? 0 (no)

For O=C(/C=C/c1ccccc1)c1ccc(-n2cc(CN3CCN(c4cc5c(cc4F)c(=O)c(C(=O)O)cn5C4CC4)CC3)nn2)cc1 , what call appears in the results of this test? 0 (no)

For CN1c2ccccc2S(=O)(=O)n2c(SCC(=O)Nc3nc4ccc(F)cc4s3)nnc21 , what call appears in the results of this test? 0 (no)

For N#Cc1c(-c2ccc(Br)cc2)nc2c(N=Nc3ccc(S(N)(=O)=O)cc3)c(N)nn2c1N , what call appears in the results of this test? 0 (no)
